Conditions: in isopentyl acetate, 323.15 K
ENDPOINT LABEL: solubility (mole fraction)
Give the figure by itself; no unit, no explanation.

Exam item: Which measured solubility (mole fraction) value corresponds to CC(C(=O)O)c1ccc(CC2CCCC2=O)cc1 (stereo unspecified) ?
Marked response: 0.134

###

Details: in n-butyl acetate, 323.15 K
ENDPOINT LABEL: solubility (mole fraction)
Give the figure by itself; no unit, no explanation.

Exam item: Which measured solubility (mole fraction) value corresponds to CC(C(=O)O)c1ccc(CC2CCCC2=O)cc1 (stereo unspecified) ?
Marked response: 0.156

###

Settings: in ethyl acetate, 298.15 K
ENDPOINT LABEL: solubility (mole fraction)
Give the figure by itself; no unit, no explanation.

Exam item: Which measured solubility (mole fraction) value corresponds to CC(C(=O)O)c1ccc(CC2CCCC2=O)cc1 (stereo unspecified) ?
Marked response: 0.0848

###

Details: in ethyl orthosilicate, 303.15 K
ENDPOINT LABEL: solubility (mole fraction)

Exam item: Which measured solubility (mole fraction) value corresponds to CC(C(=O)O)c1ccc(CC2CCCC2=O)cc1 (stereo unspecified) ?
Marked response: 0.043

###

Conditions: in methyl acetate, 283.15 K
ENDPOINT LABEL: solubility (mole fraction)
Give the figure by itself; no unit, no explanation.

Exam item: Which measured solubility (mole fraction) value corresponds to CC(C(=O)O)c1ccc(CC2CCCC2=O)cc1 (stereo unspecified) ?
Marked response: 0.0568

###

Conditions: in methanol, 283.15 K
ENDPOINT LABEL: solubility (mole fraction)
Give the figure by itself; no unit, no explanation.

Exam item: Which measured solubility (mole fraction) value corresponds to CC(C(=O)O)c1ccc(CC2CCCC2=O)cc1 (stereo unspecified) ?
Marked response: 0.0694

###

Conditions: in isopropanol, 283.15 K
ENDPOINT LABEL: solubility (mole fraction)
Give the figure by itself; no unit, no explanation.

Exam item: Which measured solubility (mole fraction) value corresponds to CC(C(=O)O)c1ccc(CC2CCCC2=O)cc1 (stereo unspecified) ?
Marked response: 0.0589

###

Settings: in n-propyl acetate, 318.15 K
ENDPOINT LABEL: solubility (mole fraction)
Give the figure by itself; no unit, no explanation.

Exam item: Which measured solubility (mole fraction) value corresponds to CC(C(=O)O)c1ccc(CC2CCCC2=O)cc1 (stereo unspecified) ?
Marked response: 0.155

###

Settings: in ethyl acetate, 318.15 K
ENDPOINT LABEL: solubility (mole fraction)
Give the figure by itself; no unit, no explanation.

Exam item: Which measured solubility (mole fraction) value corresponds to CC(C(=O)O)c1ccc(CC2CCCC2=O)cc1 (stereo unspecified) ?
Marked response: 0.19

###

Conditions: in methyl acetate, 298.15 K
ENDPOINT LABEL: solubility (mole fraction)

Exam item: Which measured solubility (mole fraction) value corresponds to CC(C(=O)O)c1ccc(CC2CCCC2=O)cc1 (stereo unspecified) ?
Marked response: 0.0895

###

Conditions: in ethyl orthosilicate, 293.15 K
ENDPOINT LABEL: solubility (mole fraction)
Give the figure by itself; no unit, no explanation.

Exam item: Which measured solubility (mole fraction) value corresponds to CC(C(=O)O)c1ccc(CC2CCCC2=O)cc1 (stereo unspecified) ?
Marked response: 0.0325

###

Settings: in isopropyl acetate, 328.15 K
ENDPOINT LABEL: solubility (mole fraction)
Give the figure by itself; no unit, no explanation.

Exam item: Which measured solubility (mole fraction) value corresponds to CC(C(=O)O)c1ccc(CC2CCCC2=O)cc1 (stereo unspecified) ?
Marked response: 0.229

###

Details: in ethanol, 303.15 K
ENDPOINT LABEL: solubility (mole fraction)
Give the figure by itself; no unit, no explanation.

Exam item: Which measured solubility (mole fraction) value corresponds to CC(C(=O)O)c1ccc(CC2CCCC2=O)cc1 (stereo unspecified) ?
Marked response: 0.123

###

Conditions: in isobutyl acetate, 313.15 K
ENDPOINT LABEL: solubility (mole fraction)
Give the figure by itself; no unit, no explanation.

Exam item: Which measured solubility (mole fraction) value corresponds to CC(C(=O)O)c1ccc(CC2CCCC2=O)cc1 (stereo unspecified) ?
Marked response: 0.0913
